Cited source: paper PMC6684055

Tested on: CYP1A1
Assay: Induction of CYP1A1 catalytic activity in primary human hepatocytes
Type: cell-based
Settings: human hepatocytes, MMI 0.1-200 μM, 24 h, then luciferin-CEE 3 h
outcome.measure: induction of CYP1A1 activity, concentration-response profile (in words)

Example entries and their recorded answers appear below.
> print(dat)
                             compound         obs.value
1  Cc1c[nH]c2ccccc12 [3-methylindole]      No induction
2  Cc1ccc2[nH]ccc2c1 [5-methylindole]  Inverse U-shaped
3  Cc1cccc2[nH]ccc12 [4-methylindole]  Inverse U-shaped
4  Cc1cc2ccccc2[nH]1 [2-methylindole]      No induction

Recorded induction of CYP1A1 activity, concentration-response profile (in words) for Cc1ccc2cc[nH]c2c1 [6-methylindole] , please?
Inverse U-shaped

====

System: CYP1A1 and CYP1A2
Experiment: Expression of CYP1A1 and CYP1A2 mRNAs
Format: cell-based, human
Details: three donors, 24 h, MMI 200 μM, TCDD 5 nM
outcome.measure: induction of CYP1A1 and CYP1A2 mRNAs and proteins in primary human hepatocytes (in words)

> print(dat)
         smiles.repr          tested.on         obs.value
1     Cn1ccc2ccccc21  CYP1A1 and CYP1A2  Modest induction
2  Cc1c[nH]c2ccccc12  CYP1A1 and CYP1A2  Modest induction

====

System: CYP1A genes
Test: Induction of CYP1A genes
Conditions: 5 F-HepaRG cells, 24 h, MMI 200 μM, TCDD 5 nM
outcome.measure: efficacy of CYP1A genes induction relative to TCDD (100%)

> print(dat)
         smiles.repr  obs.value
1  Cc1cccc2cc[nH]c12      ~ 20%

What measured efficacy of CYP1A genes induction relative to TCDD (100%) goes with Cn1ccc2ccccc21 ?
15%

Another compound: Cc1ccc2[nH]ccc2c1
~ 20%

Entry Cc1cccc2[nH]ccc12 please
~100%
